experimental_details: in vivo
run_parameters: female, CDF1, mouse, plasma, intravenous, 25 mg/kg
measurement_label: concentration at 4 h

**Q:** So what does the record say about concentration at 4 h for CC(=O)O[C@H]1C(=O)[C@@]2(C)[C@H]([C@H](OC(=O)c3ccccc3)[C@]3(O)C[C@H](OC(=O)[C@H](O)[C@@H](NC(=O)c4ccccc4)c4ccccc4)C(C)=C1C3(C)C)[C@]1(OC(C)=O)CO[C@@H]1C[C@@H]2O [Paclitaxel, reference compound] ?
**A:** < 5000 ng/mL

* * *

Test system: A-549 human lung carcinoma
experimental_details: In vitro sensitivity, sulforhodamine B cytotoxicity assay, A-549 (Table 2)
Assay type: cell-based
run_parameters: 72-hour incubation; averaged from two separate experiments
# GI50 per entry
Kindly write the number and append the unit.

**Q:** Look up GI50 for this compound: CCCCCCC(Br)C(=O)O[C@@H](C(=O)O[C@H]1C[C@@]2(O)[C@@H](OC(=O)c3ccccc3)[C@@H]3[C@]4(OC(C)=O)CO[C@@H]4C[C@H](O)[C@@]3(C)C(=O)[C@H](OC(C)=O)C(=C1C)C2(C)C)[C@@H](NC(=O)c1ccccc1)c1ccccc1 (some centres unmarked)
**A:** 4.4 nM

**Q:** Can you look up the measured GI50 of CCCCCCCCCCCCC(Br)C(=O)OC(C(=O)OC1CC2(O)C(OC(=O)c3ccccc3)C3C4(OC(C)=O)COC4CC(O)C3(C)C(=O)C(OC(C)=O)C(=C1C)C2(C)C)C(NC(=O)c1ccccc1)c1ccccc1 (centres unmarked) for me?
**A:** 31.7 nM

**Q:** I'd like to know its GI50. The compound in question is CCCCCCCCCCCCCC[C@@H](Br)C(=O)O[C@@H](C(=O)O[C@H]1C[C@@]2(O)[C@@H](OC(=O)c3ccccc3)[C@@H]3[C@]4(OC(C)=O)CO[C@@H]4C[C@H](O)[C@@]3(C)C(=O)[C@H](OC(C)=O)C(=C1C)C2(C)C)[C@@H](NC(=O)c1ccccc1)c1ccccc1 [BrC16HT, 2′-(R)-[2-bromohexadecanoyl] paclitaxel]
**A:** 127 nM

**Q:** // returns reported GI50 for input CCCCC(Br)C(=O)O[C@@H](C(=O)O[C@H]1C[C@@]2(O)[C@@H](OC(=O)c3ccccc3)[C@@H]3[C@]4(OC(C)=O)CO[C@@H]4C[C@H](O)[C@@]3(C)C(=O)[C@H](OC(C)=O)C(=C1C)C2(C)C)[C@@H](NC(=O)c1ccccc1)c1ccccc1 (mixture of isomers) [2′-2-Bromohexanoyl-, 2′-(R)-[(±)-2-Bromohexanoyl] taxol]
**A:** 3.9 nM

**Q:** Which GI50 is reported for this compound? CCCCCCCCCCC(Br)C(=O)OC(C(=O)OC1CC2(O)C(OC(=O)c3ccccc3)C3C4(OC(C)=O)COC4CC(O)C3(C)C(=O)C(OC(C)=O)C(=C1C)C2(C)C)C(NC(=O)c1ccccc1)c1ccccc1 (centres unmarked)
**A:** 4.4 nM

* * *

experimental_details: In vivo toxicity, i.p. x 5, non-tumor bearing mice
run_parameters: CDF1, mouse, in vivo, ip; i.p. once daily for five consecutive days; read-out: maximum tolerated i.p. dose (MTD, highest dose with no deaths)
measurement_label: MTD at 5 days

**Q:** For the compound shown here, CC(=O)O[C@H]1C(=O)[C@@]2(C)[C@H]([C@H](OC(=O)c3ccccc3)[C@]3(O)C[C@H](OC(=O)[C@H](O)[C@@H](NC(=O)c4ccccc4)c4ccccc4)C(C)=C1C3(C)C)[C@]1(OC(C)=O)CO[C@@H]1C[C@@H]2O [Paclitaxel, reference compound] , give the reported MTD at 5 days.
**A:** 12.5 to 25 mg/kg

The reported numbers originate from patent US6482850B2.
